Each recorded value in this set is attributed to the METLIN SMRT retention time set (Domingo-Almenara et al. 2019).

- ASSAY: gradient 5% acetonitrile 3 min, to 50% in 2 min, to 85% in 15 min, held 3 min, 100 µL/min
- REPORTED_CONDITIONS: column: Zorbax Extend-C18 2.1 x 50 mm; eluents: water / acetonitrile, 0.1% formic acid
RECORDED_METRIC: RP-LC retention time (s)
Give bare numbers, in s.

The examples below pair each entry with its known result.
CC(C)c1ccc(OCC(=O)Nc2nnc(C3CC(=O)N(c4ccc(Cl)cc4)C3)o2)cc1 (centres undefined) ... 943
O=C(Cn1cccc1-c1nc(-c2ccc(Cl)cc2)cs1)NCCN1CCOCC1 ... 711
CCOc1cc2ncc(C#N)c(Nc3ccc(OCc4ccccn4)c(Cl)c3)c2cc1NC(=O)/C=C/CN(C)C ... 620
Cn1c(=O)c2c(Nc3ccc(C(F)(F)F)cc3)ccnc2n(C)c1=O ... 1010
O=C(Nc1c(-c2ccccc2)nc2ccccn12)c1ccc(Br)cc1 ... 684
CCNC(=O)C1CCCN(c2nc3ncn(CC(=O)Nc4cc(F)cc(F)c4)c(=O)c3s2)C1 (centres undefined) ... 688
COc1ccc(NC(=O)N2CCCC(C)(C(=O)NCc3ccccc3C)C2)c(OC)c1 (centres undefined) ... 866
COc1ccc(-c2csc(NC(=O)C3(c4ccccc4)CCCC3)n2)cc1OC ... 1170

Here are 7 compounds. What values of RP-LC retention time were reported for them?
1. CCCc1ccc(S(=O)(=O)N2CCC(C(=O)NCCc3csc(-c4ccccc4)n3)CC2)cc1
2. CCOc1ccccc1NC(=O)N1CCC2(CC1)NC(=O)c1ccc(Cl)cc1N2
3. CC(C)NC(=O)c1nn(-c2ccccc2F)nc1CO
4. O=C(CSc1nnc2sc3ccccc3n12)N1CCOCC1
5. CCn1c(=O)c2ccn(CC(=O)Nc3ccc(Cl)cc3)c2n(CC)c1=O
6. Fc1ccccc1Cn1cccc1-c1nc(-c2ccc3c(c2)OCO3)no1
7. O=C(Nc1cccn2c(C3CCC3)nnc12)c1ccccn1

1. 1100
2. 834
3. 768
4. 614
5. 747
6. 1230
7. 781

====

- ASSAY: gradient 5% acetonitrile 3 min, to 50% in 2 min, to 85% in 15 min, held 3 min, 100 µL/min
- REPORTED_CONDITIONS: column: Zorbax Extend-C18 2.1 x 50 mm; eluents: water / acetonitrile, 0.1% formic acid
Decide using RP-LC retention time: a value greater than or equal to 800 s is YES, a smaller one is NO.

COCc1ncc(C)n1C1CCN(C(=O)c2ccc(Cc3c(C)noc3C)o2)C1 (centres undefined) ... NO
COc1ccc(C(C)NC(=O)Cn2c(C)cc(-c3nnc(C4CCC4)o3)c2C)cc1 (centres undefined) ... YES
COc1ccc(NC(=O)c2cc3c(=O)n(CC(C)C)c4ccccc4n3n2)c(C)c1 ... YES

# bool: RP-LC retention time of Cc1ccc2c(c1)NC(=O)c1cc(NS(=O)(=O)c3ccccc3F)ccc1O2 >= 800 s
NO

# bool: RP-LC retention time of COc1cccc(-c2noc(Cn3ccn(-c4ccc(Cl)cc4)c(=O)c3=O)n2)c1 >= 800 s
YES

# bool: RP-LC retention time of CCCN1CCn2cc(S(=O)(=O)Nc3ccccc3F)cc2C1=O >= 800 s
NO

# bool: RP-LC retention time of Cc1cccc(NC(=O)NCC(O)Cc2ccccc2)c1 (centres undefined) >= 800 s
NO

# bool: RP-LC retention time of CC1=CS/C(=C(/C#N)C(=O)N2CCOCC2)N1c1ccccc1 >= 800 s
NO

====

- ASSAY: gradient 5% acetonitrile 3 min, to 50% in 2 min, to 85% in 15 min, held 3 min, 100 µL/min
- REPORTED_CONDITIONS: column: Zorbax Extend-C18 2.1 x 50 mm; eluents: water / acetonitrile, 0.1% formic acid
RECORDED_METRIC: RP-LC retention time (s)
Answers are plain numbers, in s.

The examples below pair each entry with its known result.
COc1cc(CNC(=O)CCC(=O)N2CC3CCCN3c3ccccc32)cc(OC)c1OC (stereo not given) ... 818
CCN(Cc1ccccc1)C(=O)C1CCN(S(=O)(=O)c2ccc3c(c2)NC(=O)CO3)CC1 ... 852
Cc1nccn1CC(=O)N1CCC(OCc2nc(C3CC3)no2)CC1 ... 577
Cc1nnc2ccc(S(=O)(=O)Nc3ccc(Cl)cc3)cn12 ... 711
Cc1ccc(C)c(N2CCN(c3ccnc(SCC(=O)Nc4ccccc4Cl)n3)CC2)c1 ... 1130
CN1CCN(CCNC(=O)CCCn2c(=O)c3cccn3c3ccc(F)cc32)CC1 ... 588
COCCNC(=O)Cn1nc2cc(C)nc(-c3ccc(C(F)(F)F)cc3)n2c1=O ... 726
O=C(COc1ccccc1)N1CCc2nc(-c3ccc(Cl)cc3)ncc2C1 ... 848
COc1ccc(-c2cc3nn(CC(=O)N4CCC(C)CC4)c(=O)n3c(C)n2)cc1 ... 894
Cc1cccc(NS(=O)(=O)c2cc3c(s2)CCN(C(=O)C2CC2)C3)c1C ... 858

Here are 7 molecules. What values of RP-LC retention time were reported for them?
1. COCc1cc(=O)n(CC(=O)Nc2cc(Cl)ccc2C)c(N2CCOCC2)n1
2. COCCNC(=O)c1nnc(-c2ccc(S(=O)(=O)N3CCOCC3)cc2)o1
3. COc1ccccc1-c1nc2cnccn2c1NCCC(=O)N(C)C
4. Cc1ccc(=O)n(CCNC(=O)c2cncc(Br)c2)n1
5. CCOCCCNC(=O)C1Cn2cccc2C(=O)N1C (stereo not given)
6. CCOC(=O)c1c(C)[nH]c(C(=O)N2CCCC(C(=O)NCCN3CCN(CC)CC3)C2)c1C (stereo not given)
7. COc1cccc(CNC(=O)CN2CCN(Cc3ccc(C)cc3)C(=O)C2=O)c1

895
668
596
579
597
567
715

Here are 6 molecules. What values of RP-LC retention time were reported for them?
1. CC1CN(S(=O)(=O)c2cccc(-c3cn4cc(Cl)ccc4n3)c2)CC(C)O1 (stereo not given)
2. CC(=O)Nc1nc(-c2ccc3c(c2)NC(=O)C(C)O3)cs1 (stereo not given)
3. CCOc1cc2c(cc1OCC)C1C(C(=O)NCCN3CCOCC3)c3ccccc3C(=O)N1CC2 (stereo not given)
4. NS(=O)(=O)c1ccc(NC2(C(=O)O)CCCC2)cc1
5. Cc1ccc(NC(=O)Cn2cnc3nc4c(cc3c2=O)CCCC4)c(C)c1
6. Brc1ccc2nc(-c3ccccc3)c(Nc3ccc4c(c3)OCO4)n2c1

873
685
615
1010
734
748

Here are 2 molecules. What values of RP-LC retention time were reported for them?
1. COCCC(=O)Nc1cnn(-c2ncc(N3CCCCC3)cn2)c1
2. CCC(=O)N1CCc2c(C(=O)N3CCOCC3)cccc21

1. 667
2. 630

Here are 7 molecules. What values of RP-LC retention time were reported for them?
1. CCN(c1ccccc1)S(=O)(=O)c1cc(-c2[nH]ncc2C(=O)N2CCOCC2)oc1C
2. Cc1ccc(-n2ncc3c(=O)n(Cc4nc(-c5ccc(F)c(Cl)c5)no4)cnc32)cc1
3. CCN(CC)S(=O)(=O)c1ccc2c(c1)N(CC(=O)NCc1ccccc1C)C(=O)C1CCCCN21 (stereo not given)
4. CSc1ccccc1C(=O)Nc1nc(CN2CCc3ccccc3C2)cs1
5. COC(=O)C1=C(C)N(C(C)C)C(=O)C1(NC(=O)CCc1ccccc1)C(F)(F)F (stereo not given)
6. CC1=NS(=O)(=O)N(Cc2ccccc2)C=C1C(=O)OCc1noc(-c2ccccc2C)n1
7. CCCCOc1ccc(-c2ccc(=O)n(Cc3nc(-c4ccc(F)cc4)no3)n2)cc1

718
1190
1020
594
936
1170
1290

Here are 7 molecules. What values of RP-LC retention time were reported for them?
1. CCN1C(=O)C2(CCN(C(C)=O)CC2)c2ccccc21
2. CCCCCc1ccc(/C=C/C(=O)Nc2ccccc2C(=O)O)cc1
3. CCC(C)NC(=O)Cn1c(=O)n(CCCCC(=O)NC2CCCC2)c(=O)c2ccccc21 (stereo not given)
4. CCOc1ccccc1OCc1nn2c(-c3ccccn3)nnc2s1
5. Cc1c(C(=O)NC(C)C)cnn1-c1cc(-c2nc(C(C)C)no2)ccn1
6. O=C(Nc1nc2ccccc2[nH]1)c1cccc(Cl)c1
7. CNC(=O)c1cc(=O)[nH]c2ccccc12

[707, 1230, 736, 800, 868, 703, 580]

The reported RP-LC retention time of the molecule CC(C)NC(=O)C1CCN(Cc2cc3ccccc3n2Cc2ccccc2)CC1 was 710

====

For each of the compounds below, state its RP-LC retention time.
- ASSAY: gradient 5% acetonitrile 3 min, to 50% in 2 min, to 85% in 15 min, held 3 min, 100 µL/min
- REPORTED_CONDITIONS: column: Zorbax Extend-C18 2.1 x 50 mm; eluents: water / acetonitrile, 0.1% formic acid
One number for each entry, in s.

The examples below pair each entry with its known result.
CCOc1ccc(NC(=O)Cc2csc3nc(-c4ccc(C)c(C)c4)cn23)cc1 ... 903
CCCCNC(=O)C1c2ccccc2C(=O)N(C)C1c1cccs1 (centres undefined) ... 775
O=C(Cn1nc2c3cc(-c4ccc(F)cc4)nn3ccn2c1=O)N1CCCC1 ... 758
Cc1ccc(NC(=O)c2cc(C(C)C)n3nccc3n2)cc1C ... 1250
COc1ccc(OCC(=O)N2CCc3c(c(C(=O)N4CCCC(C(=O)NC5CC5)C4)nn3C)C2)cc1 (centres undefined) ... 657
O=C(CN1CCCCC1c1nc(-c2cccs2)no1)NCc1cccs1 (centres undefined) ... 996
O=C(Nc1ccc(F)cc1)Nc1c(-c2ccccc2)nc2ccccn12 ... 651
COc1ccccc1CCC(=O)Nc1ccc2c(c1)Sc1ncccc1C(=O)N2C ... 822

Would you kindly look at the next entry?
The reported RP-LC retention time of the compound O=C1CC(c2nc(-c3ccc4c(c3)OCO4)no2)CN1c1ccc2c(c1)OCCO2 (centres undefined) was 895
